target: recombinant human MASP2 active protease (amino acids 297-686, C-terminal His Tag) (human, UniProt O00187 297-686); assay: cell-based or functional assay
Sequence (O00187 other isoform, or with tags, fused parts or gaps limits assumed): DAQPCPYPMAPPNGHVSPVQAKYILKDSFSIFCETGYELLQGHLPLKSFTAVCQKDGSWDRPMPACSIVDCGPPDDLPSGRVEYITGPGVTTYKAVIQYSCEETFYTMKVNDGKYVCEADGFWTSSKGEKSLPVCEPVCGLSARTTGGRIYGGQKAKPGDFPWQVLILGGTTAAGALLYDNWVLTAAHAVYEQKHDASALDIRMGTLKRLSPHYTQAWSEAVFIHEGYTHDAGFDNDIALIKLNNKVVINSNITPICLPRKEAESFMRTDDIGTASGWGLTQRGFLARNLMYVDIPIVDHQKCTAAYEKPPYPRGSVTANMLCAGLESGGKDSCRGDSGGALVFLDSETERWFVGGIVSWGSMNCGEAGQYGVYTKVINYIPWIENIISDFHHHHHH
Bridge positions count the residues as written; N and C are the ends. Square brackets hold non-standard residues; d marks the D form. Ends that are not written are not given here. * marks the point of attachment. X5 = Tetrahydropyranyl‑4‑acetic acid, O=C(CC1CCOCC1)*; Oic = O=C(O)[C@@H]1C[C@@H]2CCCC[C@@H]2N1; Phe(4-Br) = N[C@@H](Cc1ccc(Br)cc1)C(=O)O; Butanoyl(3,3-Me2) = CC(C)(C)CC(=O)*; aIle = CC[C@@H](C)[C@H](N)C(=O)O; tBuAla = CC(C)(C)C[C@H](N)C(=O)O; Pen = CC(C)(S)[C@H](N)C(=O)O; NMeC = CN[C@@H](CS)C(=O)O; NMeA = CN[C@@H](C)C(=O)O; Sar = CNCC(=O)O
API: label(entry) gives y if the entry's human MASP2 IC50 is strictly smaller than 30 nM; on equality or larger values it gives n.

binder	discreteLabel
[NMeA]ICSRS[tBuAla]P[(3R,6R)‑1,1‑Difluoro‑5‑azaspiro(2.4)heptane‑6‑carboxylic acid (enantiomer 1)]I[Pen]IP-NH2 (disulfide 3-11)	n
{Butanoyl(3,3-Me2)}-ICSRS[tBuAla]PPI[Pen]IP-NH2 (disulfide 2-10; SMILES CC[C@H](C)[C@H](NC(=O)CC(C)(C)C)C(=O)N[C@H]1CSSC(C)(C)[C@@H](C(=O)N[C@H](C(=O)N2CCC[C@H]2C(N)=O)[C@@H](C)CC)NC(=O)[C@H]([C@@H](C)CC)NC(=O)[C@@H]2CCCN2C(=O)[C@@H]2CCCN2C(=O)[C@H](CC(C)(C)C)NC(=O)[C@H](CO)NC(=O)[C@H](CCCNC(=N)N)NC(=O)[C@H](CO)NC1=O) [Example 359: (tert-Butylacetic acid)-IC+SRS-((tBu)A)-PPI-(Pen)+IP-NH2]	n
[Sar]ICSRSLPPICI[Oic]D-OH (disulfide 3-11; N-terminus assumed; SMILES CC[C@H](C)[C@H](NC(=O)CNC)C(=O)N[C@H]1CSSC[C@@H](C(=O)N[C@H](C(=O)N2[C@H](C(=O)N[C@@H](CC(=O)O)C(=O)O)C[C@@H]3CCCC[C@@H]32)[C@@H](C)CC)NC(=O)[C@H]([C@@H](C)CC)NC(=O)[C@@H]2CCCN2C(=O)[C@@H]2CCCN2C(=O)[C@H](CC(C)C)NC(=O)[C@H](CO)NC(=O)[C@H](CCCNC(=N)N)NC(=O)[C@H](CO)NC1=O) [Example 367: ((N-Me)G)-IC+SRSLPPIC+I-(Oic)-D-OH]	n
AICSRSLPP[aIle]CIPD-NH2 (disulfide 3-11; N-terminus assumed; SMILES CC[C@@H](C)[C@@H]1NC(=O)[C@@H]2CCCN2C(=O)[C@@H]2CCCN2C(=O)[C@H](CC(C)C)NC(=O)[C@H](CO)NC(=O)[C@H](CCCNC(=N)N)NC(=O)[C@H](CO)NC(=O)[C@@H](NC(=O)[C@@H](NC(=O)[C@H](C)N)[C@@H](C)CC)CSSC[C@@H](C(=O)N[C@H](C(=O)N2CCC[C@H]2C(=O)N[C@@H](CC(=O)O)C(N)=O)[C@@H](C)CC)NC1=O) [Example 346: AIC+SRSLPP-(allo-I)-C+IPD-NH2]	n
GICSRS[Phe(4-Br)]PPICIPD-OH (disulfide 3-11; N-terminus assumed; SMILES CC[C@H](C)[C@H](NC(=O)CN)C(=O)N[C@H]1CSSC[C@@H](C(=O)N[C@H](C(=O)N2CCC[C@H]2C(=O)N[C@@H](CC(=O)O)C(=O)O)[C@@H](C)CC)NC(=O)[C@H]([C@@H](C)CC)NC(=O)[C@@H]2CCCN2C(=O)[C@@H]2CCCN2C(=O)[C@H](Cc2ccc(Br)cc2)NC(=O)[C@H](CO)NC(=O)[C@H](CCCNC(=N)N)NC(=O)[C@H](CO)NC1=O) [Example 416: GIC+SRS-((4-Bromo)F)-PPIC+IPD-OH]	n

Shifting focus to the binder that follows.
Say whether its human MASP2 IC50 is strictly beneath 30 nM. Entry: X5-ICSRS[tBuAla]PPI[NMeC]I-NH2 (disulfide 2-10; SMILES CC[C@H](C)[C@H](NC(=O)[C@@H]1CSSC[C@H](NC(=O)[C@@H](NC(=O)CC2CCOCC2)[C@@H](C)CC)C(=O)N[C@@H](CO)C(=O)N[C@@H](CCCNC(=N)N)C(=O)N[C@@H](CO)C(=O)N[C@@H](CC(C)(C)C)C(=O)N2CCC[C@H]2C(=O)N2CCC[C@H]2C(=O)N[C@@H]([C@@H](C)CC)C(=O)N1C)C(N)=O) [Example 305: (Tetrahydropyranyl-4-acetic acid)-IC+SRS-((tBu)A)-PPI-((N-Me)C)+I-NH2]
y
